System: C. elegans
Assay: microbe, parasite or virus in culture
Settings: Caenorhabditis elegans, 0 h, read-out: Percentage of motility inhibition 0 h, Table S2, C. elegans SS assay, 110 μM, 0 h, averages of 4 data points
quantityName: inhibition at 110 µM (%)
Answer with a number only, understood to be in %.

Per the records, this compound ( `Cc1cc(C)nc(NS(=O)(=O)c2ccc(N)cc2)n1` ) has inhibition at 110 µM equal to 5

The compound listed as `Oc1cc(O)c2c(c1)O[C@H](c1ccc(O)c(O)c1)[C@H](O)[C@H]2c1c(O)cc(O)c2c1O[C@H](c1ccc(O)c(O)c1)[C@H](O)[C@H]2c1c(O)cc(O)c2c1O[C@H](c1ccc(O)c(O)c1)[C@H](O)C2` shows inhibition at 110 µM equal to 2

The reported inhibition at 110 µM of the compound `C=C1C[C@]2(O)O[C@@]3(CC2=C(C)C)[C@@H](C)CC[C@@H]13` was 5

Field inhibition at 110 µM (entry `COc1cc2c(cc1OC)[C@H](C)NCC2` ) reads 0

The compound listed as `O=C(/C=C/C=C/c1ccc2c(c1)OCO2)N1CCCCC1` shows inhibition at 110 µM equal to 0

* * *

System: C. elegans
Test: microbe, parasite or virus in culture
Conditions: Caenorhabditis elegans, 0 h, read-out: Percentage of motility inhibition 0 h, Table S2, C. elegans SS assay, 110 μM, 0 h, averages of 4 data points
Class Fulfilled: inhibition at 110 µM at least 9%. Class Not fulfilled: inhibition at 110 µM below 9%.

**Query** API: above_or_equal(metric=inhibition at 110 µM, cutoff=9%) for item CCc1nc(N)nc(N)c1-c1ccc(Cl)cc1 [Pyrimethamine]
**Result** Fulfilled

**Query** Determine whether measured inhibition at 110 µM meets or exceeds 9% for CC(=O)O[C@]12CCC(C)=CC[C@]13CC[C@H]2[C@@](C)(/C=C/C=C(\C)C(=O)O)OC3=O [Pseudolaric Acid A]
**Result** Not fulfilled

**Query** Dear colleague, could you confirm whether COc1cc(C(=O)OCCCCNC(=N)N)cc(OC)c1O [Leonurine] has inhibition at 110 µM at or above 9%?
**Result** Not fulfilled

**Query** Quick check: does COC(=O)N[C@H](C(=O)N1CC2(CC2)C[C@H]1c1nc(-c2ccc3c(c2)C(F)(F)c2cc(-c4ccc5[nH]c([C@@H]6[C@H]7CC[C@H](C7)N6C(=O)[C@@H](NC(=O)OC)C(C)C)nc5c4)ccc2-3)c[nH]1)C(C)C [Ledipasvir] have inhibition at 110 µM greater than or equal to 9%?
**Result** Fulfilled

**Query** Does CC1CCc2cc(F)cc3c(=O)c(C(=O)O)cn1c23 (stereo not shown) [Flumequine] have a reported inhibition at 110 µM of at least 9%?
**Result** Fulfilled

**Query** Hi team, for C=C[C@@]12CN(C)[C@H]3C[C@]14C(=Nc1ccccc14)[C@H]1C[C@@H]2[C@@H]3CO1 [Koumine] , is the recorded inhibition at 110 µM at or above 9%?
**Result** Fulfilled

* * *

Would you mind telling me the reported Percentage of motility inhibition 0 h of each entry?
Test system: C. elegans
Settings: Table S2, C. elegans SS assay, 110 μM, 0 h, averages of 4 data points
Report only the number, with the unit % understood.

Reported Percentage of motility inhibition 0 h for O=C(N[C@@H](Cc1ccccc1)C(=O)N[C@H](CO)Cc1ccccc1)c1ccccc1 [Aurantiamide] was 0

Quick note, Percentage of motility inhibition 0 h for CC=C1[C@H](O[C@@H]2O[C@H](CO)[C@@H](O)[C@H](O)[C@H]2O)OC=C(C(=O)OC)[C@H]1CC(=O)OC[C@H]1O[C@@H](OCCc2ccc(O)cc2)[C@H](O)[C@@H](O)[C@@H]1O (stereo in doubt) [Specneuzhenide] landed at 3

Sure, the documented Percentage of motility inhibition 0 h for CC(C)=CCC[C@@](C)(O)[C@H]1CC[C@]2(C)[C@@H]1[C@H](O)C[C@@H]1[C@@]3(C)C[C@@H](O)[C@H](O[C@@H]4O[C@H](CO)[C@@H](O)[C@H](O)[C@H]4O[C@@H]4O[C@H](CO)[C@@H](O)[C@H](O)[C@H]4O)C(C)(C)[C@@H]3CC[C@]12C [Gypenoside LI] is 0

The molecule identified as CC(C)(O)[C@@H]1CC[C@](C)([C@H]2[C@@H](O)C[C@@]3(C)[C@@H]4C[C@H](O[C@@H]5O[C@H](CO)[C@@H](O)[C@H](O)[C@H]5O)[C@H]5C(C)(C)[C@@H](O[C@@H]6OC[C@@H](O)[C@H](O)[C@H]6O[C@@H]6O[C@H](CO)[C@@H](O)[C@H](O)[C@H]6O)CC[C@@]56C[C@@]46CC[C@]23C)O1 [Astragaloside VI] registered its Percentage of motility inhibition 0 h at 3

// recorded Percentage of motility inhibition 0 h for Cn1nnc(-c2ccc(-c3ccc(N4C[C@H](COP(=O)(O)O)OC4=O)cc3F)cn2)n1 [Tedizolid (phosphate)] : 10
